Target: human CB2 receptor (Homo sapiens (Human))
Sequence (P34972 whole entry): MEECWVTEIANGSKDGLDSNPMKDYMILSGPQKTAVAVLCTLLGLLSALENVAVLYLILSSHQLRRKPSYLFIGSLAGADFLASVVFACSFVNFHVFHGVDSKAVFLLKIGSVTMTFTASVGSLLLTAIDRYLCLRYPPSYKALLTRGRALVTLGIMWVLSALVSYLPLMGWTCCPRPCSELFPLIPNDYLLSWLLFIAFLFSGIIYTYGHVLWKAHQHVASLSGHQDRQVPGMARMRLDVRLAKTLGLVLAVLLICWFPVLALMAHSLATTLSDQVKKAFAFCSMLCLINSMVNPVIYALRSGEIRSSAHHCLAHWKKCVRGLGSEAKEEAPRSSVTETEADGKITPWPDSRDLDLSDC
Assay Overview: cAMP assay, CHO cells expressing human CB2 receptors
Condition Set: functional cAMP assay, read-out: CB2 hcAMP EC50
In plain terms, low EC50, meaning strictly below 5 nM, gives YES, and everything else gives NO.

Lookup: is_below(EC50, 5 nM) for CCCOc1nc(N2CCC(F)(F)C2)c2nnn(Cc3ccccc3Cl)c2n1 [Example 59] ?
Found: YES

Lookup: Consider the compound Cn1nnnc1Cn1nnc2c(N3CCC(F)(F)C3)nc(NC(C)(C)C)nc21 [Example 25] . Is its EC50 strictly less than 5 nM?
Found: NO

Lookup: I wonder whether CCNc1nc(N2CCC(F)(F)C2)c2nnn(Cc3ccccc3Cl)c2n1 [Example 8] has EC50 below 5 nM. Can you tell?
Found: YES

Lookup: Strictly below 5 nM in EC50? CC(C)Sc1nc(N2CCC(F)(F)C2)c2nnn(Cc3ccccc3Cl)c2n1 [Example 84]
Found: YES

Lookup: Hello, is EC50 of the following compound strictly smaller than 5 nM? Clc1ccccc1Cn1nnc2c(N3CCCCC3)nc(N3CCCCC3)nc21 [Example 7]
Found: NO

Lookup: Hi there! Is EC50 for C[C@]1(O)CCN(c2nc(N3CCOCC3)nc3c2nnn3Cc2ccccc2Cl)C1 [Example 32] below 5 nM, do you know?
Found: NO

Lookup: is_below(EC50, 5 nM) for CC(=O)N[C@H]1CCN(c2nc(OCC(C)(C)C)nc3c2nnn3Cc2nonc2C)C1 [Example 79] ?
Found: NO

Lookup: EC50 strictly < 5 nM for this compound? CCCCSc1nc(N2CCC(F)(F)C2)c2nnn(Cc3ccccc3Cl)c2n1 [Example 91]
Found: NO

Lookup: State whether 5 nM exceeds EC50 recorded for FCCOc1nc(N2CCC(F)(F)C2)c2nnn(Cc3ccccc3Cl)c2n1 [Example 46] .
Found: NO

Lookup: EC50 strictly < 5 nM for this compound? C[C@H](Oc1nc(N2CCC(F)(F)C2)c2nnn(Cc3nnnn3C)c2n1)C(F)(F)F [Example 73]
Found: NO

Lookup: Dear colleague, could you confirm whether EC50 of C[C@H](Oc1nc(N2CCC(F)(F)C2)c2nnn(Cc3ccccc3C(F)(F)F)c2n1)C(F)(F)F [Example 68] falls below 5 nM? Thanks.
Found: YES

Lookup: Problem: For the compound CC(=O)N[C@H]1CCN(c2nc(NC(C)(C)C)nc3c2nnn3Cc2ccccc2Cl)C1 [Example 97] , is EC50 under 5 nM?
Found: NO

Lookup: is_below(EC50, 5 nM) for CC(C)CSc1nc(N2CCC(F)(F)C2)c2nnn(Cc3ccccc3Cl)c2n1 [Example 92] ?
Found: YES

Lookup: # check: EC50 < 5 nM for CC(=O)N[C@H]1CCN(c2nc(O[C@@H](C)C(F)(F)F)nc3c2nnn3Cc2ccccc2Cl)C1 [Example 80]
Found: NO

Lookup: Threshold test, EC50 < 5 nM: O=S(=O)(Cc1ccccc1)c1nc(N2CCC(F)(F)C2)c2nnn(Cc3ccccc3Cl)c2n1 [Example 87]
Found: NO

Lookup: For this compound, is EC50 lower than 5 nM? FC(F)(F)CSc1nc(N2CCC(F)(F)C2)c2nnn(Cc3ccccc3Cl)c2n1 [Example 83]
Found: YES

----------
Would you kindly list pEC50 for each of these compounds?
Target: UniProt:P34972
Assay Overview: cAMP assay, CHO cells expressing human CB2 receptors
Condition Set: functional cAMP assay, read-out: CB2 hcAMP EC50
Procedure: CHO cells expressing human CB1 or CB2 receptors are seeded 17-24 hours prior to the experiment 50.000 cells per well in a black 96 well plate with flat clear bottom (Corning Costar #3904) in DMEM (Invitrogen No. 31331), 1×HT supplement, with 10% fetal calf serum and incubated at 5% CO2 and 37° C. in a humidified incubator. […] The time-resolved energy transfer is measured by a TRF reader (Evotec Technologies GmbH), equipped with a ND:YAG laser as excitation source. […]
API: returns pEC50 as number; meaning -log10 of concentration in mol/L.

The recorded pEC50 for entry C[C@@]1(O)CCN(c2nc(N3CCOCC3)nc3c2nnn3Cc2ccccc2C(F)(F)F)C1 equals 7.63

Input FC1(F)CCN(c2nc(NC3CCC3)nc3c2nnn3Cc2ccccc2Cl)C1 . Output pEC50: 8.59

The reported pEC50 of the compound COc1ccc(Cn2nnc3c(N4CC[C@](C)(O)C4)nc(NC(C)(C)C)nc32)cc1 was 7.05

// pEC50 lookup, compound = C[C@@]1(O)CCN(c2nc(N3CCOCC3)nc3c2nnn3Cc2ccccc2Cl)C1 , result: 6.66

Value of measured pEC50 for the entry CC(C)(C)Nc1nc(N2CCC(F)(F)C2)c2nnn(Cc3ccccc3Cl)c2n1 : 9.05

The reported pEC50 of the compound CC(C)Oc1nc(N2CCC(F)(F)C2)c2nnn(Cc3ccccc3Cl)c2n1 was 8.92

Recorded result, FC1(F)CCN(c2nc(N3CCC3)nc3c2nnn3Cc2ccccc2Cl)C1 , pEC50: 8.80

FC1(F)CCN(c2nc(N3CCOCC3)nc3c2nnn3Cc2ccccc2Cl)C1 yielded pEC50 of 8.46
